// data source = patent US20240270821A1

Items are presented alongside their recorded cAMP Rel EC50, nM (1% HSA).
- assayed_target: T1, human GIP receptor (human) (UniProt P48546)
- T1 sequence (looked up): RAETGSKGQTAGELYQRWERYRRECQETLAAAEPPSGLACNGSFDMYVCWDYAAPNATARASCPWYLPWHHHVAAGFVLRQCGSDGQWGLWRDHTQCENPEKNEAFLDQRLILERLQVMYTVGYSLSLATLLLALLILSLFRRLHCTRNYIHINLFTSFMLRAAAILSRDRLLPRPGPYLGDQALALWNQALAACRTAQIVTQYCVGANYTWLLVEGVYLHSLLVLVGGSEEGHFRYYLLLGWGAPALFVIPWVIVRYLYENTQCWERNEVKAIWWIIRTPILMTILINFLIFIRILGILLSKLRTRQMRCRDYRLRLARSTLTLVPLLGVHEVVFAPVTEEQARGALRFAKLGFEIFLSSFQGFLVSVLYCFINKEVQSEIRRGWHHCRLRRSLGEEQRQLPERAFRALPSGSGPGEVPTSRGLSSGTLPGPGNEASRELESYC
- measurement_protocol: cell-based or functional assay
Respond numerically; units are nM and should not be typed.

Answered cases to consult:
| binder | uom | cAMP Rel EC50, nM (1% HSA) |
| --- | --- | --- |
| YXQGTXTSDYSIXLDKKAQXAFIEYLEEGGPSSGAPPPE (synthetic construct; SITE 2: note = 2-Aminoisobutyric Acid; SITE 6: note = alpha-methyl-L-phenylalanine; SITE 13: note = alpha-methyl-leucine; SITE 17: note = Lysine is chemically modified through conjugation of the epsilon-amino group of the Lysine side chain with (2-[2-(2-Amino-ethoxy)-ethoxy]-ace)) [Example 396] | nM | 9.5 |
| YXQGTFTSDXSRXLDKKAQXAFIEYLIEXGESSGAPPPSGE (acylated; synthetic construct; SITE 2: note = 2-Aminoisobutyric Acid; SITE 10: note = 3-(4-Pyridyl)-L-alanine; SITE 13: note = alpha-methyl-leucine; SITE 17: note = Lysine is chemically modified through conjugation of the epsilon-amino group of the Lysine side chain with (2-[2-(2-Amino-ethoxy)-ethoxy]-acetyl)) [Example 225] | nM | 40.2 |
| YXQGTFTSDFSXXLDKKAQXAFIEYLLEXGXSSGAPPPSGE (synthetic construct; SITE 2: note = 2-Aminoisobutyric Acid; SITE 12: note = L-ornithine; SITE 13: note = alpha-methyl-leucine; SITE 17: note = Lysine is chemically modified through conjugation of the epsilon-amino group of the Lysine side chain with (2-[2-(2-Amino-ethoxy)-ethoxy]-acetyl)2-(gamma-Glu)) [Example 189] | nM | 22.2 |

Notebook: YXQGTXTSDXXIXLDXKAQXXFIEXLIEGGPSSGEPPPE (synthetic construct; SITE 2: note = 2-Aminoisobutyric Acid; SITE 6: note = alpha-methyl-2-fluoro-L-phenylalanine; SITE 10: note = 3-(4-Pyridyl)-L-alanine; SITE 11: note = alpha-methyl-L-serine; SITE 13: note = alpha-methyl-leucine; SITE 16: note = L-ornithine; SITE 17: note = Lysine is chemically mo) [Example 378] , cAMP Rel EC50, nM (1% HSA) read as 2.15

Notebook: YXQGTFTSDYXIXLDKKAQXAFIEYLIEGGPSSGAPPPS (synthetic construct; SITE 2: note = 2-Aminoisobutyric Acid; SITE 11: note = alpha-methyl-L-serine; SITE 13: note = alpha-methyl-leucine; SITE 17: note = Lysine is chemically modified through conjugation of the epsilon-amino group of the Lysine side chain with (2-[2-(2-Amino-ethoxy)-ethoxy]-acetyl)2-) [Example 382] , cAMP Rel EC50, nM (1% HSA) read as 17.7
